- System: HCC-15
- methodDescription: relative viability (nuclei count vs DMSO), 5 days (fraction); higher = more cells survive
- assayContext: first compound 0.04 µM
measure: relative viability

compound	resultNumber
Cc1sc2c(c1C)C(c1ccc(Cl)cc1)=N[C@@H](CC(=O)OC(C)(C)C)c1nnc(C)n1-2 [JQ1] + C[C@@H](Oc1cc(-c2cnn(C3CCNCC3)c2)cnc1N)c1c(Cl)ccc(F)c1Cl [Crizotinib] (partner 1 µM)	0.762
Cc1sc2c(c1C)C(c1ccc(Cl)cc1)=N[C@@H](CC(=O)OC(C)(C)C)c1nnc(C)n1-2 [JQ1] + CCNC(=O)c1noc(-c2cc(C(C)C)c(O)cc2O)c1-c1ccc(CN2CCOCC2)cc1 [Luminespib] (partner 0.01 µM)	0.348
Cc1sc2c(c1C)C(c1ccc(Cl)cc1)=N[C@@H](CC(=O)OC(C)(C)C)c1nnc(C)n1-2 [JQ1] + NC(=O)Nc1cc(-c2cccc(F)c2)sc1C(=O)N[C@H]1CCCNC1 [AZD7762] (partner 0.2 µM)	1.32
Cc1sc2c(c1C)C(c1ccc(Cl)cc1)=N[C@@H](CC(=O)OC(C)(C)C)c1nnc(C)n1-2 [JQ1] + CC(=O)Nc1cccc(-n2c(=O)n(C3CC3)c(=O)c3c(Nc4ccc(I)cc4F)n(C)c(=O)c(C)c32)c1 [Trametinib] (partner 0.02 µM)	0.376

----------
- System: LXF-289
- methodDescription: relative viability (nuclei count vs DMSO), 5 days (fraction); higher = more cells survive
- assayContext: first compound 158.11 µM

compound	relative viability
O=C(O)CCCCC(CCSCc1ccccc1)SCc1ccccc1 (stereo not drawn) [CPI-613] + C[C@]1(O)C[C@@H](c2nc(-c3ccc4ccc(-c5ccccc5)nc4c3)c3c(N)nccn32)C1 [Linsitinib] (partner 1 µM)	0.269
O=C(O)CCCCC(CCSCc1ccccc1)SCc1ccccc1 (stereo not drawn) [CPI-613] + NC(=O)Nc1cc(-c2cccc(F)c2)sc1C(=O)N[C@H]1CCCNC1 [AZD7762] (partner 0.2 µM)	0.722
O=C(O)CCCCC(CCSCc1ccccc1)SCc1ccccc1 (stereo not drawn) [CPI-613] + N=C(N)NC(=N)NCCc1ccccc1 [Phenformin] (partner 250 µM)	0.443

----------
- System: A-427
- methodDescription: relative viability (nuclei count vs DMSO), 5 days (fraction); higher = more cells survive
- assayContext: first compound 0.006325 µM
Below, each entry is listed with its recorded relative viability.

compound	relative viability
CC(=O)O[C@@]12CO[C@@H]1C[C@H](O)[C@@]1(C)C(=O)[C@H](O)C3=C(C)[C@@H](OC(=O)[C@H](O)[C@@H](NC(=O)OC(C)(C)C)c4ccccc4)C[C@@](O)([C@@H](OC(=O)c4ccccc4)[C@H]21)C3(C)C [Docetaxel] + O=C(CCCCCCC(=O)Nc1ccccc1)NO [Vorinostat] (partner 1 µM)	0.36
CC(=O)O[C@@]12CO[C@@H]1C[C@H](O)[C@@]1(C)C(=O)[C@H](O)C3=C(C)[C@@H](OC(=O)[C@H](O)[C@@H](NC(=O)OC(C)(C)C)c4ccccc4)C[C@@](O)([C@@H](OC(=O)c4ccccc4)[C@H]21)C3(C)C [Docetaxel] + CC(=O)Nc1cccc(-n2c(=O)n(C3CC3)c(=O)c3c(Nc4ccc(I)cc4F)n(C)c(=O)c(C)c32)c1 [Trametinib] (partner 0.02 µM)	0.388
CC(=O)O[C@@]12CO[C@@H]1C[C@H](O)[C@@]1(C)C(=O)[C@H](O)C3=C(C)[C@@H](OC(=O)[C@H](O)[C@@H](NC(=O)OC(C)(C)C)c4ccccc4)C[C@@](O)([C@@H](OC(=O)c4ccccc4)[C@H]21)C3(C)C [Docetaxel] + COc1cccc2cc(-c3nc([C@H]4CC[C@H](C(=O)O)CC4)n4ncnc(N)c34)[nH]c12 [OSI-027] (partner 0.5 µM)	0.235
CC(=O)O[C@@]12CO[C@@H]1C[C@H](O)[C@@]1(C)C(=O)[C@H](O)C3=C(C)[C@@H](OC(=O)[C@H](O)[C@@H](NC(=O)OC(C)(C)C)c4ccccc4)C[C@@](O)([C@@H](OC(=O)c4ccccc4)[C@H]21)C3(C)C [Docetaxel] + CC1(C)CCC(c2ccc(Cl)cc2)=C(CN2CCN(c3ccc(C(=O)NS(=O)(=O)c4ccc(N[C@H](CCN5CCOCC5)CSc5ccccc5)c(S(=O)(=O)C(F)(F)F)c4)cc3)CC2)C1 [Navitoclax] (partner 0.5 µM)	0.26

----------
- Test system: NCI-H441
- methodDescription: relative viability (nuclei count vs DMSO), 5 days (fraction); higher = more cells survive
- assayContext: first compound 2.53 µM
relative viability values for the compounds below.

compound	relative viability
Cc1cnc(-c2cnc(NCCNc3ccc(C#N)cn3)nc2-c2ccc(Cl)cc2Cl)[nH]1 + NC(=O)Nc1cc(-c2cccc(F)c2)sc1C(=O)N[C@H]1CCCNC1 [AZD7762] (partner 0.2 µM)	0.993
Cc1cnc(-c2cnc(NCCNc3ccc(C#N)cn3)nc2-c2ccc(Cl)cc2Cl)[nH]1 + Cc1cc(Nc2cc(N3CCN(C)CC3)nc(Sc3ccc(NC(=O)C4CC4)cc3)n2)n[nH]1 [Tozasertib] (partner 0.1 µM)	0.405
Cc1cnc(-c2cnc(NCCNc3ccc(C#N)cn3)nc2-c2ccc(Cl)cc2Cl)[nH]1 + Cc1nc(Nc2ncc(C(=O)Nc3c(C)cccc3Cl)s2)cc(N2CCN(CCO)CC2)n1 [Dasatinib] (partner 0.075 µM)	0.403
O=c1[nH]c2ccccc2n1C1CCN(CCCC(c2ccc(F)cc2)c2ccc(F)cc2)CC1 [Pimozide] + C[C@@H](Oc1cc(-c2cnn(C3CCNCC3)c2)cnc1N)c1c(Cl)ccc(F)c1Cl [Crizotinib] (partner 1 µM)	0.568
Cc1cnc(-c2cnc(NCCNc3ccc(C#N)cn3)nc2-c2ccc(Cl)cc2Cl)[nH]1 + N=C(N)NC(=N)NCCc1ccccc1 [Phenformin] (partner 250 µM)	0.864
O=c1[nH]c2ccccc2n1C1CCN(CCCC(c2ccc(F)cc2)c2ccc(F)cc2)CC1 [Pimozide] + Cc1nc(NC(=O)N2CCC[C@H]2C(N)=O)sc1-c1ccnc(C(C)(C)C(F)(F)F)c1 [Alpelisib] (partner 2 µM)	0.574
O=c1[nH]c2ccccc2n1C1CCN(CCCC(c2ccc(F)cc2)c2ccc(F)cc2)CC1 [Pimozide] + COc1cccc2cc(-c3nc([C@H]4CC[C@H](C(=O)O)CC4)n4ncnc(N)c34)[nH]c12 [OSI-027] (partner 0.5 µM)	0.436
Cc1cnc(-c2cnc(NCCNc3ccc(C#N)cn3)nc2-c2ccc(Cl)cc2Cl)[nH]1 + C[C@]1(O)C[C@@H](c2nc(-c3ccc4ccc(-c5ccccc5)nc4c3)c3c(N)nccn32)C1 [Linsitinib] (partner 1 µM)	0.519

----------
- System: NCI-H2087
- methodDescription: relative viability (nuclei count vs DMSO), 5 days (fraction); higher = more cells survive
- assayContext: first compound 0.5 µM

molecule	relative viability
COc1cc2nccc(Oc3ccc(NC(=O)Nc4cc(C)on4)c(Cl)c3)c2cc1OC [Tivozanib] + O=C(c1cc(Cc2n[nH]c(=O)c3ccccc23)ccc1F)N1CCN(C(=O)C2CC2)CC1 [Olaparib] (partner 8 µM)	0.713
Nc1ccn([C@@H]2O[C@H](CO)[C@@H](O)[C@@H]2O)c(=O)n1 [Cytarabine] + CCNC(=O)c1noc(-c2cc(C(C)C)c(O)cc2O)c1-c1ccc(CN2CCOCC2)cc1 [Luminespib] (partner 0.01 µM)	0.134
Nc1ccn([C@@H]2O[C@H](CO)[C@@H](O)[C@@H]2O)c(=O)n1 [Cytarabine] + Cc1nc(NC(=O)N2CCC[C@H]2C(N)=O)sc1-c1ccnc(C(C)(C)C(F)(F)F)c1 [Alpelisib] (partner 2 µM)	0.452
COc1cc2nccc(Oc3ccc(NC(=O)Nc4cc(C)on4)c(Cl)c3)c2cc1OC [Tivozanib] + C[C@@H](Oc1cc(-c2cnn(C3CCNCC3)c2)cnc1N)c1c(Cl)ccc(F)c1Cl [Crizotinib] (partner 1 µM)	0.668

----------
- System: NCI-H1734
- methodDescription: relative viability (nuclei count vs DMSO), 5 days (fraction); higher = more cells survive
- assayContext: first compound 500 µM

compound	testedTarget	relative viability
O=C(O)CCCCC(CCSCc1ccccc1)SCc1ccccc1 (configuration not stated) [CPI-613] + CC1(C)CCC(c2ccc(Cl)cc2)=C(CN2CCN(c3ccc(C(=O)NS(=O)(=O)c4ccc(N[C@H](CCN5CCOCC5)CSc5ccccc5)c(S(=O)(=O)C(F)(F)F)c4)cc3)CC2)C1 [Navitoclax] (partner 0.5 µM)	NCI-H1734	0.117
O=C(O)CCCCC(CCSCc1ccccc1)SCc1ccccc1 (configuration not stated) [CPI-613] + Cc1nc(Nc2ncc(C(=O)Nc3c(C)cccc3Cl)s2)cc(N2CCN(CCO)CC2)n1 [Dasatinib] (partner 0.075 µM)	NCI-H1734	0.105

----------
- Tested on: NCI-H520
- methodDescription: relative viability (nuclei count vs DMSO), 5 days (fraction); higher = more cells survive
- assayContext: first compound 8 µM

compound	relative viability
O=c1[nH]c2ccccc2n1C1CCN(CCCC(c2ccc(F)cc2)c2ccc(F)cc2)CC1 [Pimozide] + COc1cccc2cc(-c3nc([C@H]4CC[C@H](C(=O)O)CC4)n4ncnc(N)c34)[nH]c12 [OSI-027] (partner 0.5 µM)	0.227
O=c1[nH]c2ccccc2n1C1CCN(CCCC(c2ccc(F)cc2)c2ccc(F)cc2)CC1 [Pimozide] + CS(=O)(=O)N1CCN(Cc2cc3nc(-c4cccc5[nH]ncc45)nc(N4CCOCC4)c3s2)CC1 [Pictilisib] (partner 1 µM)	0.259
O=c1[nH]c2ccccc2n1C1CCN(CCCC(c2ccc(F)cc2)c2ccc(F)cc2)CC1 [Pimozide] + Nc1ncn([C@H]2C[C@H](O)[C@@H](CO)O2)c(=O)n1 [Decitabine] (partner 2 µM)	0.613
O=c1[nH]c2ccccc2n1C1CCN(CCCC(c2ccc(F)cc2)c2ccc(F)cc2)CC1 [Pimozide] + CC(=O)c1c(C)c2cnc(Nc3ccc(N4CCNCC4)cn3)nc2n(C2CCCC2)c1=O [Palbociclib] (partner 0.5 µM)	0.213
O=c1[nH]c2ccccc2n1C1CCN(CCCC(c2ccc(F)cc2)c2ccc(F)cc2)CC1 [Pimozide] + Nc1nc2[nH]cc(CCc3ccc(C(=O)N[C@@H](CCC(=O)O)C(=O)O)cc3)c2c(=O)[nH]1 [Pemetrexed] (partner 0.2 µM)	0.575
O=c1[nH]c2ccccc2n1C1CCN(CCCC(c2ccc(F)cc2)c2ccc(F)cc2)CC1 [Pimozide] + COc1cc2c(Oc3ccc(NC(=O)C4(C(=O)Nc5ccc(F)cc5)CC4)cc3F)ccnc2cc1OCCCN1CCOCC1 [Foretinib] (partner 0.25 µM)	0.898
O=c1[nH]c2ccccc2n1C1CCN(CCCC(c2ccc(F)cc2)c2ccc(F)cc2)CC1 [Pimozide] + CC1(C)CCC(c2ccc(Cl)cc2)=C(CN2CCN(c3ccc(C(=O)NS(=O)(=O)c4ccc(N[C@H](CCN5CCOCC5)CSc5ccccc5)c(S(=O)(=O)C(F)(F)F)c4)cc3)CC2)C1 [Navitoclax] (partner 0.5 µM)	1.15
O=c1[nH]c2ccccc2n1C1CCN(CCCC(c2ccc(F)cc2)c2ccc(F)cc2)CC1 [Pimozide] + CC(=O)Nc1cccc(-n2c(=O)n(C3CC3)c(=O)c3c(Nc4ccc(I)cc4F)n(C)c(=O)c(C)c32)c1 [Trametinib] (partner 0.02 µM)	0.54
O=c1[nH]c2ccccc2n1C1CCN(CCCC(c2ccc(F)cc2)c2ccc(F)cc2)CC1 [Pimozide] + C[C@@H](Oc1cc(-c2cnn(C3CCNCC3)c2)cnc1N)c1c(Cl)ccc(F)c1Cl [Crizotinib] (partner 1 µM)	0.675
